Listed here: items and their measured T/C.
test system: L1210 leukemia ip in BDF1 mice, survival T/C; assay: NCI In Vivo Anticancer Drug Screen. Data for tumor model L1210 Leukemia (intraperitoneal) in B6D2F1 (BDF1) mice; details: endpoint: mean survival time; dose: 50.0 mg/kg/injection; schedule: Q01DX009 (ip); vehicle: Klucel (hydroxypropylcellulose) (HPC); higher = longer survival
Inconclusive results and toxic doses are left out.

COc1ccc([PH+](c2ccc(OC)cc2)c2ccc(OC)cc2)cc1.COc1ccc([PH+](c2ccc(OC)cc2)c2ccc(OC)cc2)cc1.[Cl][Hg][Cl] | 108 % of control
CCCCC(CC)NC(=O)c1ccc(OC)cc1 (stereo unspecified) | 95 % of control
COC(=O)c1ccccc1NC(=O)Nc1ccccc1F | 90 % of control
O=C1c2ccccc2C(=O)N1SN1C(=O)c2ccccc2C1=O | 93 % of control

Problem: Quick one: T/C for O=C(N/N=C(\C=N\NC(=O)c1ccccc1)CC(O)CO)c1ccccc1 (stereo unspecified) ?
Result: 91 % of control

Problem: Tell me the measured T/C of CC(=O)c1cccc(NC(=O)Oc2cc(=O)oc3ccccc23)c1 , please.
Result: 101 % of control

---

Recorded T/C, one value per entry.
test system: L1210 leukemia ip in BDF1 mice, survival T/C; assay: NCI In Vivo Anticancer Drug Screen. Data for tumor model L1210 Leukemia (intraperitoneal) in B6D2F1 (BDF1) mice; details: endpoint: mean survival time; dose: 200.0 mg/kg/injection; schedule: Q01DX001 (ip); vehicle: Klucel (hydroxypropylcellulose) (HPC); higher = longer survival
Toxic doses and inconclusive results are not listed.

O=NC1C(Cl)C2CC1C1COCC21 (configuration not stated) | 90 % of control

Problem: Entry COC(=O)c1ccccc1NC(=O)c1ccccc1[N+](=O)[O-] : reported T/C = ?
Result: 100 % of control

Problem: Give its T/C value. Item: CC(=S)NC(=O)Nc1cccc2ccccc12
Result: 91 % of control

Problem: Suppose we examine the compound CC(C)CN(CC(C)C)[N+](=O)[O-] ; what T/C value has been reported?
Result: 114 % of control

---

Each record here notes measured T/C.
system: L1210 leukemia ip in BDF1 mice, survival T/C; test: NCI In Vivo Anticancer Drug Screen. Data for tumor model L1210 Leukemia (intraperitoneal) in B6D2F1 (BDF1) mice; settings: endpoint: mean survival time; dose: 400.0 mg/kg/injection; schedule: Q01DX009 (ip); vehicle: saline; higher = longer survival
Inconclusive results and toxic doses are left out.

# count of solved cases: 6
FC(F)(F)c1ccc2c(c1)C1c3ccccc3C2c2ccccc21 | 91 % of control
O=C1CNC(=O)N1 | 96 % of control
COc1ccc(Cl)cc1NC(=O)Nc1cccc2c(O)cccc12 | 96 % of control
CN(C)C(=O)Nc1ccc(Cl)c(Cl)c1 | 93 % of control
CCOC(=O)C(C)C(=O)C(=O)N=C(N)N (stereo not given) | 100 % of control
CCN1c2c(nc(N)[nH]c2=O)NCC1CNc1ccc(C(=O)NC(CCC(=O)O)C(=O)O)cc1 (stereo not given) | 94 % of control

Problem: Using the record for CC(O)C(O)C(N)CC=O (stereo not given) , report its T/C.
Result: 97 % of control

Problem: Entry CC(NC(=O)OCc1ccccc1)C(=O)Oc1cc(Cl)c(Cl)cc1Cl (stereo not given) has what T/C?
Result: 92 % of control

Problem: Tell me the measured T/C of CC(C)(C)C1CCC(S(C)(=O)=O)C(Cl)C1 (stereo not given) , please.
Result: 102 % of control

Problem: Look up T/C for this compound: CC(=O)ONc1nc(C)c(CCC2OCCO2)c(SC(=N)N)n1
Result: 93 % of control

---

tested on: L1210 leukemia ip in BDF1 mice, survival T/C; test: NCI In Vivo Anticancer Drug Screen. Data for tumor model L1210 Leukemia (intraperitoneal) in B6D2F1 (BDF1) mice; conditions: endpoint: mean survival time; dose: 25.0 mg/kg/injection; schedule: Q01DX009 (ip); vehicle: saline with Tween-80; higher = longer survival
Toxic doses and inconclusive results are not listed.
Here the recorded T/C is given for each entry.

COc1ccc2[nH]c(-c3ccccc3)cc2c1 | 100 % of control
CC(=N)c1ccc(C)cc1 | 102 % of control

Problem: Name the recorded T/C for O=C(Nc1ccccc1)OCC(CN1CCCCC1)OC(=O)Nc1ccccc1 (stereo not drawn) .
Result: 99 % of control

Problem: What does the data say about its T/C? Entry: CCCCCCOC(CN)C(Cl)(Cl)Cl (stereo not drawn)
Result: 116 % of control

Problem: Return reported T/C; argument: N#CCCSc1ccccc1
Result: 112 % of control

Problem: What measured T/C goes with O=C(Nc1ccc(Cl)c(C(F)(F)F)c1)Oc1ccccn1 ?
Result: 99 % of control

Problem: Can you share its T/C? I mean this compound: FC(F)c1nc2nc(Cl)c(Cl)nc2[nH]1
Result: 100 % of control

Problem: I'd like to know its T/C. The compound in question is BrCC1CCCCO1 (stereo not drawn)
Result: 99 % of control

---

system: L1210 leukemia ip in BDF1 mice, survival T/C; experiment: NCI In Vivo Anticancer Drug Screen. Data for tumor model L1210 Leukemia (intraperitoneal) in B6D2F1 (BDF1) mice; details: endpoint: mean survival time; dose: 400.0 mg/kg/injection; schedule: Q04DX003 (ip); vehicle: Klucel (hydroxypropylcellulose) (HPC); higher = longer survival
Inconclusive results and toxic doses are left out.
The entries below come with measured T/C values attached.

CC(C)(c1ccccc1)C(C)(C)c1ccccc1 | 96 % of control
Clc1cccc(NCCc2ccccc2)c1 | 102 % of control
COc1cc2cccccc-2cc1=O | 103 % of control
N#Cc1cc(C(Cl)(Cl)Cl)ccc1C(Cl)(Cl)Cl | 90 % of control
COc1ccc(Cl)cc1NC(=O)Nc1nccs1 | 95 % of control

Problem: T/C for CC1(C)[C@@H]2CC[C@]1(C)[C@@H](O)C2 ?
Result: 97 % of control

Problem: I'd like to know its T/C. The compound in question is COC(=O)C1=CCC(C2(C)CO2)CC1 (stereo not drawn)
Result: 104 % of control

Problem: Which measured T/C value corresponds to O=C(Nc1cccc(Cl)c1)Nc1cccc(Cl)c1 ?
Result: 100 % of control

Problem: Fill blank: measured T/C of the compound CCOC(=O)C1(C(=O)OCC)NC(=O)CC1c1ccccc1 (stereo not drawn) is ____.
Result: 105 % of control

Problem: Item Oc1ccc(C2CCc3ccccc32)cc1 (stereo not drawn) has what recorded T/C?
Result: 93 % of control

Problem: Fill blank: measured T/C of the compound COC(=O)C1CCC2(C)CCC(=O)C(C)C2C1 (stereo not drawn) is ____.
Result: 104 % of control

Problem: State the recorded T/C for this entry: [N-]=[N+]=Nc1cccc[n+]1[O-]
Result: 105 % of control

Problem: Consider the compound shown here: O=C1CC(OC(=O)c2ccccc2)(c2ccccc2)OC(c2ccccc2)=C1c1ccccc1 (stereo not drawn) What is its recorded T/C?
Result: 100 % of control

---

tested on: L1210 leukemia ip in BDF1 mice, survival T/C; assay: NCI In Vivo Anticancer Drug Screen. Data for tumor model L1210 Leukemia (intraperitoneal) in B6D2F1 (BDF1) mice; conditions: endpoint: mean survival time; dose: 40.0 mg/kg/injection; schedule: Q01DX001 (ip); vehicle: saline; higher = longer survival
Toxic doses and inconclusive results are not listed.
recordedEndpoint: T/C

COc1ccc2nc3ccccc3c(NCCCN(C)C)c2c1 | 106 % of control

Problem: Request: T/C, test system L1210 leukemia ip in BDF1 mice, survival T/C, entry CCCCCN(CCCCC)CC(O)C1c2ccccc2Cc2ccccc21 (centres undefined)
Result: 104 % of control

Problem: Form: Entry = CCN(CC)CCCC(C)Nc1ccnc2ccc(-c3ccccc3)cc12 (centres undefined) | System = L1210 leukemia ip in BDF1 mice, survival T/C | T/C = ____
Result: 96 % of control

Problem: Return T/C measured with L1210 leukemia ip in BDF1 mice, survival T/C given this compound: CC1([CH2][Hg][I])CS(=O)(=O)CC(C)([CH2][Hg][I])O1 (centres undefined)
Result: 98 % of control

---

tested on: L1210 leukemia ip in BDF1 mice, survival T/C; assay: NCI In Vivo Anticancer Drug Screen. Data for tumor model L1210 Leukemia (intraperitoneal) in B6D2F1 (BDF1) mice; conditions: endpoint: mean survival time; dose: 25.0 mg/kg/injection; schedule: Q04DX003 (ip); vehicle: Klucel (hydroxypropylcellulose) (HPC); higher = longer survival
Toxic doses and inconclusive results are not listed.
The molecules listed here are annotated with their T/C.

C/C(=C\c1ccccc1)[N+](=O)[O-] | 116 % of control
CCCCCCCCCCCCN(CCC(=O)O)S(=O)(=O)O | 98 % of control
OC(/C=C/C(O)c1ccccc1)c1ccccc1 (stereo unspecified) | 100 % of control

Now let's try a different one.
Problem: Report T/C for Cc1c([N+](=O)[O-])cc(C(C)(C)C)c(OC(=O)Nc2ccccc2)c1[N+](=O)[O-] please.
Result: 106 % of control
